- Tested on: human Fpn (Homo sapiens, UniProt Q9NP59)
- Construct: FLAG (C); made in house; host or cells: Pichia pastoris
- Sequence (Q9NP59 whole entry): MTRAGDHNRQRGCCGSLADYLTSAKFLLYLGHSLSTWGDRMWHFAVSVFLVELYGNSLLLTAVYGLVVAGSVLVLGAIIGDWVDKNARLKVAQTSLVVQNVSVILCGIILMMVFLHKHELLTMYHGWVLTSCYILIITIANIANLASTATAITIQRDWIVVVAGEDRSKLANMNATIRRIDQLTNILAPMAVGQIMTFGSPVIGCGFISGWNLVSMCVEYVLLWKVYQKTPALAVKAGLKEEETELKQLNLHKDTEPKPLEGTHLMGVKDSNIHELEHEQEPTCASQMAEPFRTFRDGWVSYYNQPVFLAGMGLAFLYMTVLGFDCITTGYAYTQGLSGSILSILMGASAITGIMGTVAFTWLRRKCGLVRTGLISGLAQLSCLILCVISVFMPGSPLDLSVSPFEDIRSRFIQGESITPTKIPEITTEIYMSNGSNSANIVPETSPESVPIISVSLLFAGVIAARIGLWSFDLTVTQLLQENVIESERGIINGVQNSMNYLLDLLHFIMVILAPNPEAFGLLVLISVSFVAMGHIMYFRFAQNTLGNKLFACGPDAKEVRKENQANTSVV
- Method description: Biophysical Ferroportin-Hepcidin Binding Assay (fluorescence polarization)
- Details: average of multiple measurements; 1 μM human Fpn, 20 nM TMR-hepcidin; read-out: FP IC50
Recorded metric: log10 IC50 (log10 of the value in µM)
Reminder: these figures are log10 of reported IC50, in µM before transformation.

O=C(NCc1ncccc1F)c1coc(C2CN(CCc3nc4ccccc4[nH]3)C2)n1 = -1.72
O=C(NCc1ccccc1)c1csc(CCNCc2nc3cc(F)ccc3[nH]2)n1 = -0.03

Task: log10 IC50 for O=C(NCc1ncccc1F)c1cccc(CCNCc2nc3ccccc3[nH]2)n1 ?
Result: 0.40

Task: Also need Cn1cc(CNC(=O)c2csc(CCNCc3nc4ccccc4[nH]3)n2)cn1 , thanks.
Result: 1.08

Task: Also need O=C(NCc1cccnn1)c1nc(CCNCc2nc3ccccc3[nH]2)sc1Cl , thanks.
Result: -0.59
